Every entry's value here was drawn from patent US9718825B2.

Biological target: recombinant human SGK-1 enzyme (Homo sapiens)
Test: Enzymatic activity assay: SGK-1 substrate peptide phosphorylation (Caliper lab-chip mobility shift)
Assay type: biochemical
Details: peptide substrate 1 μM, ATP 10 μM, 60 min at 37° C., read-out: IC50 values for inhibition of SGK-1 enzymatic activity
endpointLabel: pIC50
# pIC50: negative log10 of molar concentration; output just the value

1) COc1ccc(Cl)c(S(=O)(=O)Nc2ccc(-c3nc(OC4CCC(O)CC4)c4cn[nH]c4n3)cc2)c1 (stereo not shown) [Example 90]
8.66
2) O=S(=O)(Nc1ccc(-c2nc(OCCO)c3cn[nH]c3n2)cc1)c1cc(Cl)ccc1F [Example 32]
8.29

Using the record for NCCCOc1nc(-c2ccc(NS(=O)(=O)c3cc(F)ccc3F)cc2)nc2[nH]ncc12 [Example 199] , report its pIC50.
7.59

---

Molecular target: recombinant human SGK-1 enzyme (Homo sapiens, UniProt O00141)
Sequence (O00141 whole entry, looked up): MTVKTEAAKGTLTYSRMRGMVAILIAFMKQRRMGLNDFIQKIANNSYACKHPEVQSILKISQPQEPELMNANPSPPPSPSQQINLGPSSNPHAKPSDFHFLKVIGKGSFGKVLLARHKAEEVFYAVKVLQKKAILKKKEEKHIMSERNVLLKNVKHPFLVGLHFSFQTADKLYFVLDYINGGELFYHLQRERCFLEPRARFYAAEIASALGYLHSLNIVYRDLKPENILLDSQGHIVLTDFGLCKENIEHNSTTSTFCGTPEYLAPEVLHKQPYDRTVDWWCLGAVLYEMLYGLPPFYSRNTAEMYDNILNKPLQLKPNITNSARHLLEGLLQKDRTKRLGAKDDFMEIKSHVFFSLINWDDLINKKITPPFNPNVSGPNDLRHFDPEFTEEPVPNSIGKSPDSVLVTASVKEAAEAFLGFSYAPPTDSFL
Experiment: Enzymatic activity assay: SGK-1 substrate peptide phosphorylation (Caliper lab-chip mobility shift)
Type: biochemical
Conditions: read-out: IC50 values for inhibition of SGK-1 enzymatic activity, peptide substrate 1 μM, ATP 10 μM, 60 min at 37° C.
endpointLabel: IC50

Here's what some known entries look like.
1. Nc1n[nH]c2nc(-c3ccc(NS(=O)(=O)c4cc(Cl)c(F)cc4F)cc3)nc(C3CC3)c12 [Example 448]
< 1.5 nM
2. COc1cc(-c2ncc3c(C)n[nH]c3n2)ccc1NS(=O)(=O)c1cc(Cl)ccc1Cl [Example 534]
< 1.5 nM
3. Cc1nc(-c2ccc(NS(=O)(=O)c3cc(Cl)c(F)cc3F)cc2)nc2[nH]nc(N)c12 [Example 447]
< 1.5 nM
4. Cc1ccc(C#N)c(S(=O)(=O)Nc2ccc(-c3nc(OC4CCC(O)CC4)c4cn[nH]c4n3)cc2)c1 (stereo not shown) [Example 4]
< 1.5 nM
5. Cc1n[nH]c2nc(-c3ccc(NS(=O)(=O)c4cc(Cl)ccc4Cl)cc3)ncc12 [Example 1]
< 1.2 nM

Using the record for O=S(=O)(Nc1ccc(-c2nc(-c3cccnc3)c3cn[nH]c3n2)cc1)c1cc(Cl)ccc1Cl [Example 5] , report its IC50.
< 1.2 nM

Using the record for COc1nc(-c2ccc(NS(=O)(=O)c3cc(Cl)ccc3F)cc2)nc2[nH]nc(N)c12 [Example 7] , report its IC50.
< 1.5 nM

---

System: SGK-1 dependent phosphorylation of GSK3beta in U2OS cells
Assay: SGK-1 dependent phosphorylation of GSK3beta in U2OS cells overexpressing recombinant SGK-1 and GSK3beta
Type: cell-based, human
Conditions: U2OS cells, 6 h incubation, ratio of phosphorylated GSK3beta to total GSK3beta; read-out: IC50 values for inhibition of SGK-1 dependent phosphorylation of GSK3beta in U2OS cells
endpointLabel: log10 IC50 (log10 of the value in nM)
All values: log10 IC50 [nM].

Here's what some known entries look like.
1) O=S(=O)(Nc1ccc(-c2nc(OCCCCO)c3cn[nH]c3n2)cc1)c1cc(Cl)ccc1F
3.76
2) O=S(=O)(Nc1ccc(-c2nc(OC3CCC(O)CC3)c3cn[nH]c3n2)cc1)c1cc(Cl)ccc1Cl (stereo not shown)
2.63
3) O=S(=O)(Nc1ccc(-c2nc(O[C@H]3CCCC[C@H]3O)c3cn[nH]c3n2)cc1)c1cc(Cl)ccc1Cl
3.32
4) Cc1ccc(C#N)c(S(=O)(=O)Nc2ccc(-c3nc(OCC4CNCCO4)c4cn[nH]c4n3)cc2)c1 (stereo not shown)
2.78
5) COc1ccc(Cl)c(S(=O)(=O)Nc2ccc(-c3nc(OCCCN)c4c(C)n[nH]c4n3)cc2)c1
2.04
6) O=S(=O)(Nc1ccc(-c2nc(O[C@H]3CCCC(O)C3)c3cn[nH]c3n2)cc1)c1cc(Cl)ccc1Cl (stereo partly shown)
3.18

Using the record for `Cc1ccc(F)c(S(=O)(=O)Nc2ccc(-c3nc(OCCCN)c4cn[nH]c4n3)cc2)c1` , report its log10 IC50.
2.11
